experiment: Therapeutic ratio, ratio of IC50 for Cytotoxicity against human CD4 positive T cells transduced with replication defective HIV containing GFP reporter (delta GPE) to IC50 for Inhibition of Nef protein-dependent MHC-1 HLA-A2 down modulation in human CD4 positive T cells transduced with replication defective HIV containing GFP reporter (delta GPE); format: toxicity, cell-based; conditions: read-out: Ratio IC50
experimentalEndpoint: selectivity ratio
// keep it numeric: no unit symbol after the value

compoundSmiles	reportedResult
CO/C1=C\C(C)=C\[C@@H](C)[C@@H](O)[C@@H](C)C/C(C)=C/C=C/[C@H](OC)[C@@H]([C@@H](C)[C@@H](O)[C@H](C)[C@@]2(OC)C[C@@H](O)[C@H](C)[C@@H](C(C)C)O2)OC1=O	1.2

Okay, next one:
Return reported selectivity ratio; argument: CCCCCCCCC(=O)O[C@@H]1C[C@](O)([C@@H](C)[C@H](O)[C@H](C)[C@H]2OC(=O)/C(OC)=C/C(C)=C/[C@@H](C)[C@@H](O)[C@@H](C)C/C(C)=C/C=C/[C@@H]2OC)O[C@H](C(C)C)[C@H]1C
1.1

----------
// selectivity ratio lookup, one value per entry
assay: Therapeutic ratio, ratio of IC50 for Cytotoxicity against human CD4 positive T cells transduced with replication defective HIV containing GFP reporter (delta GPE) to IC50 for Inhibition of Nef protein-dependent MHC-1 HLA-A2 down modulation in human CD4 positive T cells transduced with replication defective HIV containing GFP reporter (delta GPE); assay type: toxicity, cell-based; settings: read-out: Ratio IC50

Return reported selectivity ratio; argument: CO/C1=C\C(C)=C\[C@@H](C)[C@@H](O)[C@@H](C)C/C(C)=C/C=C/[C@H](OC)[C@@H]([C@@H](C)[C@@H](O)[C@H](C)[C@H]2C[C@@H](O)[C@H](C)[C@@H](C(C)C)O2)OC1=O
1.4

Return reported selectivity ratio; argument: CO/C1=C\C(C)=C\[C@@H](C)[C@@H](O)[C@@H](C)C/C(C)=C/C=C/[C@H](OC)[C@@H]([C@@H](C)[C@@H](O)[C@H](C)[C@H]2C=C(O)[C@H](C)[C@@H](C(C)C)O2)OC1=O
1.6

Return reported selectivity ratio; argument: C/C=C/[C@H]1O[C@@](O)([C@@H](C)[C@H](O)[C@H](C)[C@H]2OC(=O)/C(OC)=C/C(C)=C/[C@@H](C)[C@@H](O)[C@@H](C)[C@@H](O)[C@H](C)C/C(C)=C/C=C/[C@@H]2OC)C[C@@H](O[C@H]2C[C@@H](OC(C)=O)[C@H](OC(N)=O)[C@@H](C)O2)[C@@H]1C
8

----------
test: Therapeutic ratio, ratio of IC50 for Cytotoxicity against human CD4 positive T cells transduced with replication defective HIV containing GFP reporter (delta GPE) to IC50 for Inhibition of Nef protein-dependent MHC-1 HLA-A2 down modulation in human CD4 positive T cells transduced with replication defective HIV containing GFP reporter (delta GPE); type: toxicity, cell-based; details: read-out: Ratio IC50
experimentalEndpoint: selectivity ratio
// keep it numeric: no unit symbol after the value

Past entries and their recorded results:
compoundSmiles	reportedResult
C/C=C/[C@H]1O[C@@](O)([C@@H](C)[C@H](O)[C@H](C)[C@H]2OC(=O)/C(OC)=C/C(C)=C/[C@@H](C)[C@@H](O)[C@@H](CC)[C@@H](O)[C@H](C)C/C(C)=C/C=C/[C@@H]2OC)C[C@@H](OC(C)=O)[C@@H]1C	5.8
C/C=C/[C@H]1O[C@@](O)([C@@H](C)[C@H](O)[C@H](C)[C@H]2OC(=O)/C(OC)=C/C(C)=C/[C@@H](C)[C@@H](O)[C@@H](CC)[C@@H](OC(C)=O)[C@H](C)C/C(C)=C/C=C/[C@@H]2OC)C[C@@H](OC(C)=O)[C@@H]1C	2.5
C/C=C/[C@H]1O[C@@](O)([C@@H](C)[C@H](O)[C@H](C)[C@H]2OC(=O)/C(OC)=C/C(C)=C/[C@@H](C)[C@@H](O)[C@@H](CC)[C@@H](O)[C@H](C)C/C(C)=C/C=C/[C@@H]2OC)C[C@@H](O[C@H]2C[C@@H](OC(C)=O)[C@H](OC(N)=O)[C@@H](C)O2)[C@@H]1C	8.5
C/C=C/[C@H]1O[C@@](O)([C@@H](C)[C@H](O)[C@H](C)[C@H]2OC(=O)/C(OC)=C/C(C)=C/[C@@H](C)[C@@H](O)[C@@H](CC)[C@@H](OC(C)=O)[C@H](C)C/C(C)=C/C=C/[C@@H]2OC)C[C@@H](O[C@H]2C[C@@H](OC(C)=O)[C@H](OC(C)=O)[C@@H](C)O2)[C@@H]1C	1.8
C/C=C/[C@H]1O[C@@](O)([C@@H](C)[C@H](O)[C@H](C)[C@H]2OC(=O)/C(OC)=C/C(C)=C/[C@@H](C)[C@@H](O)[C@@H](CC)[C@@H](O)[C@H](C)C/C(C)=C/C=C/[C@@H]2OC)C[C@@H](O[C@H]2C[C@@H](OC(C)=O)[C@H](OC(C)=O)[C@@H](C)O2)[C@@H]1C	1.8

Return reported selectivity ratio; argument: C=C/C=C/C(=O)O[C@@H]1C[C@](O)([C@@H](C)[C@H](O)[C@H](C)[C@H]2OC(=O)/C(OC)=C/C(C)=C/[C@@H](C)[C@@H](O)[C@@H](C)C/C(C)=C/C=C/[C@@H]2OC)O[C@H](C(C)C)[C@H]1C
1.4

Return reported selectivity ratio; argument: CCCCC(=O)O[C@@H]1C[C@](O)([C@@H](C)[C@H](O)[C@H](C)[C@H]2OC(=O)/C(OC)=C/C(C)=C/[C@@H](C)[C@@H](O)[C@@H](C)C/C(C)=C/C=C/[C@@H]2OC)O[C@H](C(C)C)[C@H]1C
1.4

Return reported selectivity ratio; argument: CO/C1=C\C(C)=C\[C@@H](C)[C@@H](O)[C@@H](C)C/C(C)=C/C=C/[C@H](OC)[C@@H]([C@@H](C)[C@@H](O)[C@H](C)[C@H]2C[C@@H](OC)[C@H](C)[C@@H](C(C)C)O2)OC1=O
1.4

----------
// IC50 at 72 h lookup, one value per entry
assay: Cytotoxicity against human CD4 positive T cells transduced with replication defective HIV containing GFP reporter (delta GPE) assessed as cell viability by measuring vital dye uptake incubated for 72 hrs by flow cytometric assay; type: toxicity, cell-based

Return reported IC50 at 72 h; argument: CC[C@H]1OC(=O)[C@H](C)[C@@H](O[C@@H]2O[C@H](C)C[C@H](N(C)C)[C@H]2O)[C@@H](C)C[C@@H](C)C(=O)/C=C/[C@H]1C
> 1000 nM

Return reported IC50 at 72 h; argument: CO[C@H]1/C=C/O[C@@]2(C)Oc3c(C)c(O)c4c(O)c(c(/C=N/N5CCN(C)CC5)c(O)c4c3C2=O)NC(=O)/C(C)=C\C=C\[C@H](C)[C@H](O)[C@@H](C)[C@@H](O)[C@@H](C)[C@H](OC(C)=O)[C@@H]1C
> 1000 nM

Return reported IC50 at 72 h; argument: CC[C@H]1OC(=O)C(C)C(O)[C@@H](C)C[C@@H](C)C(=O)/C=C/[C@H]1C (some centres undefined)
140 nM

Return reported IC50 at 72 h; argument: COc1cc2c(O)c3c(c(-c4ccc5c(c4)OCO5)c2cc1OC)C(=O)OC3
> 1000 nM
